Each entry below carries its reported signal change in competition ELISA (% reduction in OD).
target.or.test.system: pre-existing anti-scFv903 antibodies in human serum H59 (human)
measurement.protocol: competition ADA bridging ELISA
assay.readout: signal change in competition ELISA (% reduction in OD)

- binder: "scFv 961 (scFv) scFv: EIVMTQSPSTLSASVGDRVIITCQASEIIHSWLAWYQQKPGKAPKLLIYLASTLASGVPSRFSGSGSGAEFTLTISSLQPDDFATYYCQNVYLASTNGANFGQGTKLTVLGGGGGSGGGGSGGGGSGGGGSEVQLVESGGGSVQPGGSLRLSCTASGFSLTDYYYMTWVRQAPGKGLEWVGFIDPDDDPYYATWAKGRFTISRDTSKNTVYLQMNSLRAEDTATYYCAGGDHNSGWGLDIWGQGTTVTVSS"
  measurement: "-67%"
- binder: "scFv 903 (scFv) scFv: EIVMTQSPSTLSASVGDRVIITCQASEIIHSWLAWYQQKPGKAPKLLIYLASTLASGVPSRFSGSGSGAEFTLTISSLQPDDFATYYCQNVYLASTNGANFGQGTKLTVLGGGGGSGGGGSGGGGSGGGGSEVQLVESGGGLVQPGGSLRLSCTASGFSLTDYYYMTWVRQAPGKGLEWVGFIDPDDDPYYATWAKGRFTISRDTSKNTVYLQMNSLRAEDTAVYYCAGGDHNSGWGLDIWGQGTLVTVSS"
  measurement: "-97%"
- binder: "scFv105 (scFv) scFv: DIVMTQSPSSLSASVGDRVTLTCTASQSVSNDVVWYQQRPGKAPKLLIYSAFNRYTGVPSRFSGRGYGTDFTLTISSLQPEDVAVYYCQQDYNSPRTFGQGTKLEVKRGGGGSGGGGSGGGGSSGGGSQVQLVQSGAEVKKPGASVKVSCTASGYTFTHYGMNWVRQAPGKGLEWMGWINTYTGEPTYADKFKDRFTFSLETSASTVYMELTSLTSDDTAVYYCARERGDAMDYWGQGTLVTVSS"
  measurement: "-94%"
- binder: "scFv 791 (scFv) scFv: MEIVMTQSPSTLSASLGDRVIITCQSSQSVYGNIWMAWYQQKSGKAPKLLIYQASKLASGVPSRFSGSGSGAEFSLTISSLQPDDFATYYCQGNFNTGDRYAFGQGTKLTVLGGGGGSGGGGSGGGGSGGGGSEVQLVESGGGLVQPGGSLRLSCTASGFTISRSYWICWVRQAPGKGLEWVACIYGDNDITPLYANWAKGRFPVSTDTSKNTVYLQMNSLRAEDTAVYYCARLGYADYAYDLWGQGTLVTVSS"
  measurement: "-96%"
